# Tested on: Philasterides dicentrarchi
# Experiment Description: microbe, parasite or virus in culture
# Stated Conditions: 100 μM, 3 h, culture medium, mean ± SD of three replicates
Metric: Ciliate Mortality 3 h (%)
Could you kindly put the unit after your number?

Any idea what Ciliate Mortality 3 h (%) was measured for CC12CCC(CC1=O)C2(C)C (centres unmarked) ?
0%

Next record, please: `CCCCCCc1ccc(O)cc1O`
95.3 ± 4.05%

Moving on to CC(O)C(=O)[O-].[Na+] (centres unmarked) [Sodium lactate]
13.76 ± 4.1%

Queued: O=C(/C=C/c1ccccc1)c1ccc(O)cc1O [2′,4′-dihydroxychalcone]
99 ± 0.71%

Let us now turn to CC1=NCCc2c1[nH]c1cc(O)ccc21.Cl.O.O [Harmalol hydrochloride dihydrate]
4.8 ± 1.12%

Similarly, `C[C@H]1C(=O)O[C@@H]2CCN3CC=C(COC(=O)[C@](C)(O)[C@]1(C)O)[C@H]23` ?
6.61 ± 1.06%

Now the compound `C[C@H]1CC[C@]2(NC1)O[C@H]1C[C@H]3[C@@H]4CC[C@H]5C[C@@H](O[C@@H]6O[C@H](CO)[C@H](O[C@@H]7O[C@H](CO)[C@@H](O)[C@H](O[C@@H]8OC[C@@H](O)[C@H](O)[C@H]8O)[C@H]7O[C@@H]7O[C@H](CO)[C@@H](O)[C@H](O)[C@H]7O)[C@H](O)[C@H]6O)CC[C@]5(C)[C@H]4CC[C@]3(C)[C@H]1[C@@H]2C`
93.33 ± 2.31%

How about this compound: `CC1=CC(=O)c2c(O)cccc2C1=O`
100%
